B1: Osa-1-4 twister ribozyme (parent)
chain: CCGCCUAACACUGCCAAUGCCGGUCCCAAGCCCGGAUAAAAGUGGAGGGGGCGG

Variants of: B1
Assay details: self-cleavage, relative activity (ratio to wild type); higher = more cleavage; co-transcriptional
Quantity: self-cleavage

>>> print(df.to_string())
                                         seq  measured
 0  CCGCCUAACACUGCCAAUGCCUGUCCCAAGCCCCGAUAAAAGUGGAGGGGGCGG       0.4
 1  CCGCCUAACACUGCCAAUGCCGCUCCCAAGCCCGGAUAAAAAUGGAGGGGGCGG      0.05
 2  CCGCCUAACACUGCCAAUGCCGGUUCCAAGCCCGGCUAAAAGUGGAGGGGGCGG       0.1
 3  CCGCCUAACACGGCCAAUGCCGGUCCCAAGCCCGGAUAAAAGUGGAGGGAGCGG      0.11
 4  CCGCCUAACCCUGCCAAUGCCGGUCCCAAGCCCGGAUAAAAGUGGAGGGGGCAG      0.11
 5  CCGCCUAACACUGCCACUGCCGGUCCCAAGCCCGGAUAAAAGUGUAGGGGGCGG      0.14
 6  CCGCCUAACACUGCCAAUGCCGGUCCCAAGCCCGGCUAAAAGUGGAGGGGGGGG      0.51
 7  CCGCCUAACAAUGCCAAUGCCGGUCCCAAGCCCGGAUAAAAGUGGAGCGGGCGG      0.05
 8  CCGCCUAAAACUGCCAAUGCCGGUCCCAAGCCCAGAUAAAAGUGGAGGGGGCGG      0.19
 9  CCGCCUAACACUGCCAAUGCCGGUCCCAAGCCCGGAUUAAAGUGGAGAGGGCGG       0.1
10  CCGCCUAACACUGCCAAUGCCGGUCCCAAGCCUGGUUAAAAGUGGAGGGGGCGG      0.89
11  CCGCCUAACACUGCCAAUGCCGGUCCCAAGCCCGGAUAUAAGUGGAUGGGGCGG      0.11
12  CCGCCUAACACUGACAAUGCCGGUCCCAAGCCCGGAUAAAAGUGGAGGGGGCCG      0.02
13  CCGCCUAACACUGCCAAUGCCGGUCCCAAGCCCGGAUAAAAGUGGAAGGGGCUG      0.08
14  CCGCCUAACACUGCCAAUGCCGGGCCCAAGCCCGGAUAAAAGUGGGGGGGGCGG      0.02
15  CCGCCUAACACUGCAAACGCCGGUCCCAAGCCCGGAUAAAAGUGGAGGGGGCGG      0.58
16  CCGCCUAACACUGCCAAUGCCGGUCCCAAGCCAGGAUAAAAGUGGAGGGGGUGG      0.28
17  CCGCCUAACACUGCCAAUGCCGGGCCCAAGUCCGGAUAAAAGUGGAGGGGGCGG      0.03
18  CCGCCUAACACUGCCAAUGCCGGUCCCAAGACCGGAUAAAAGUUGAGGGGGCGG      0.03
19  CCGCCUAACACUGCCAAUGGCGGUCCCAAGCCCGGAUAAAAGUGGAGGGGACGG      0.09
20  CCGCCUAACACUGCCAAUGCCGGACCCAAGCCCGGAUAAAAGUGGAGGGGACGG      0.08
21  CCGCCUUACACUGCCAAUGCCGGUCCCAAGCCUGGAUAAAAGUGGAGGGGGCGG      0.08
22  CCGCCUUACACUGCCCAUGCCGGUCCCAAGCCCGGAUAAAAGUGGAGGGGGCGG      0.15
23  CCGCCUAACACUGCAAAUGCCGGUCCCAAGCCCGGAUAAAACUGGAGGGGGCGG      0.08
24  CCGCCUAACACUGCCAAUGCCGGUCCCAAUCCCGGAUAAAAGUGGAGGGGGCAG      0.04
25  CCGCCUAACACUGCCAAUGCCGCUCCCAAGCCCGGAUAAAAGUGGAGGGGGCUG      0.04
26  CCGCCUAACGCUGCCAAUGCCGGUCCCUAGCCCGGAUAAAAGUGGAGGGGGCGG      0.43
27  CCGCCUAACACUGCCACUGCCGGUCCCAAGCCCGGAUAAAAGUGGAGGGGGCGU      0.91
28  CCGCCUAACACUGCCAAUGCCGGUUCCAAGCCCGGAUAAAAGUGGAGGGGGGGG       0.8
29  CCGCCUUACACUGCCAAUGCCGGUCCCAAGCCCGGAUAAAAGUGGAGGGGGCUG      0.05
30  CCGCCUAACACUGCCAAUGCCGGUCCCAAGCCCGGAUAAAAGUCGAGGGGGCGA      0.89
31  CCGCCUAACGCUGCCAAUGCCGGUCCCAAGCCCGGAUAAAUGUGGAGGGGGCGG      0.76
32  CCGCCUAAUACUGCCAAUGCCGGCCCCAAGCCCGGAUAAAAGUGGAGGGGGCGG      0.06
33  CCGCCUAACACUGCCAAUGCCGGUCCCGAGCCCGGAUAAAAGUGGAGGGGGAGG       0.2
34  CCGCCUAACACUGCCAAUGCCGGUCCCAAGCGUGGAUAAAAGUGGAGGGGGCGG      0.07
35  CCGCCUAACACUGCCAAUGCCGGUCCCAAGCCCGGAGAAAAAUGGAGGGGGCGG      0.89
36  CCGCCUAACACUGCCAAUGCCGGUCCCAAACCUGGAUAAAAGUGGAGGGGGCGG      0.04
37  CCGCCUAACAGUGCCAAUGCCGGUCCCAAGCCCGGAUAAAAGUUGAGGGGGCGG      0.09
38  CCGCCUAGCACUGCCAAUGCAGGUCCCAAGCCCGGAUAAAAGUGGAGGGGGCGG      0.14
39  CCGCCUAGCACUGCCAAUGCCGGUCCCAAGCCCGGAUACAAGUGGAGGGGGCGG      0.23
40  CCGCCUAAAACUGCCAAUGCCGGUCCCAAGGCCGGAUAAAAGUGGAGGGGGCGG      0.03
41  CCGCCUAACUCUGCCAAUGCCGGUCCAAAGCCCGGAUAAAAGUGGAGGGGGCGG      0.02
42  CCGCCUAACACUGCCAAAGCCGGUCCCAAGCCCGGAUAAAAGUGGAGGGGGUGG      0.97
43  CCGCCUAACACUGCCAAUGCCGGUCCCAAGCACGGAUUAAAGUGGAGGGGGCGG      0.08
44  CCGCCUAACACUGCCAAUGCCGGUCACAAGUCCGGAUAAAAGUGGAGGGGGCGG      0.06
45  CCGCCUAACACUCCCAAUGCCGGUCCCAAGCCCGGAUAAAAGUGGAGGUGGCGG      0.01
46  CCGCCUAACACUGCCAAUGCCAGUCCCAAGCCCGGAUAAAAGUGGAGGGGACGG       0.2
47  CCGCCUUACACUGCCAAUGCCGGUCCCAAGCCCGGAUAAAAGUGGAUGGGGCGG      0.04
48  CCGCCUAACACAGCCAAUGCCGGUCCCAAGCCGGGAUAAAAGUGGAGGGGGCGG      0.05
49  CCGCCUAUCACUGCCAAUGCCGGUCCCAAGCCUGGAUAAAAGUGGAGGGGGCGG      0.09
50  CCGCCUAACACUGCCAAUGCCGGUCGCAAGCCCGAAUAAAAGUGGAGGGGGCGG      0.08
51  CCGCCUAACACUGCCAAUGCCGGUCCCAAACCCGGAUACAAGUGGAGGGGGCGG      0.04
52  CCGCCUAGCACUGCCGAUGCCGGUCCCAAGCCCGGAUAAAAGUGGAGGGGGCGG      0.76
53  CCGCCUAGCACUGCCAAUGCCGGUCCCAAGCCCGGAUAAAAGUGGCGGGGGCGG      0.02
54  CCGCCUAACACUGCCAAUGGCGGUCCCAAGCCCGGAUAAAAGUGGACGGGGCGG      0.04
55  CCGCCUAACACUGCCAAUGCCGGUCCCAAGCCGGGAUAAAAGUGGAGAGGGCGG      0.02
56  CCGCCUAACACUGCCAAUGCCGAUCCCAAGCCCGGAUAAAAGUGGAGGGCGCGG      0.14
57  CCGCCUAACACUGCCAAUGCCGAUCCCAAGCCCGGAAAAAAGUGGAGGGGGCGG      0.77
58  CCGCCUAACACCGCCAAUGCCGGUCCCAAGCCCGGAUAGAAGUGGAGGGGGCGG      0.19
59  CCGCCUAACACUGCCAGUGCCGGUCCCAAGCCCGGAUAAGAGUGGAGGGGGCGG      0.89
60  CCGCCUAAAACUGCCAAUGCCGGUCCCAAGCCCGGAUAAAAGUGGAGGGGGCGU      0.36
61  CCGCCUAACACUACCAAUGCCGGUCCCAAGCCCGGAGAAAAGUGGAGGGGGCGG      0.17
62  CCGCCUUACACUGCCAAUGCGGGUCCCAAGCCCGGAUAAAAGUGGAGGGGGCGG      0.05
63  CCGCCUAACACUGCCAAUGCCGGUCCCAAGCACGGAUAAAAGUGAAGGGGGCGG      0.04
64  CCGCCUAACACUACCAAUGCCGGUCCCAAGCCCGGAUAAAAGUGGAGCGGGCGG      0.03
65  CCGCCUAACACUGCCAAUGCCGGUCCCUCGCCCGGAUAAAAGUGGAGGGGGCGG      0.03
66  CCGCCUAACACUGCCAAUGCCGGUCCCAAGCCCGCAUAAAAGUGGAGGGGGAGG      0.22
67  CCGCCUAACACUGCCAAUGCCGGUCCCAAGUCCGGAUAAAAGUGGAAGGGGCGG      0.05
68  CCGCCUAACUCUGCCAAUGCCGGUCCCAAGCCCGGAUAAAAGUAGAGGGGGCGG      0.03
69  CCGCCUAACACUGCCAAUGCCGGUCCCAAUCCCGGAUAAAAGUGGAGGUGGCGG      0.03
70  CCGCCUAACACUGCCAAUGCCGGUUCCAAGCCCGGAUUAAAGUGGAGGGGGCGG       0.9
71  CCGCCUAACACCGCCAAUGCCGGUCCCAAGCCCGGAAAAAAGUGGAGGGGGCGG      0.51
72  CCGCCUAACACUGCCAAUGCCGGUGCCAAGCCCGCAUAAAAGUGGAGGGGGCGG      0.05
73  CCGCCUAACACUGCCAAUGCCGGUCCCAAUCCCGGAUAAAAGUGGGGGGGGCGG      0.03
74  CCGCCUAACACUGCCAAUGCCGGUCCCAAGCCCGGGUAAAAGUGGAGGGGGCGC      1.01
75  CCGCCUAACACUGACAAUGCCGGUCCCAAGCCCGGAUAAAAGUGGAGGGGGAGG       0.1
